Documented composite z-score across a set of molecules
- test target: Torsin-1A (Homo sapiens) (UniProt O14656)
- Sequence (O14656 whole entry, looked up): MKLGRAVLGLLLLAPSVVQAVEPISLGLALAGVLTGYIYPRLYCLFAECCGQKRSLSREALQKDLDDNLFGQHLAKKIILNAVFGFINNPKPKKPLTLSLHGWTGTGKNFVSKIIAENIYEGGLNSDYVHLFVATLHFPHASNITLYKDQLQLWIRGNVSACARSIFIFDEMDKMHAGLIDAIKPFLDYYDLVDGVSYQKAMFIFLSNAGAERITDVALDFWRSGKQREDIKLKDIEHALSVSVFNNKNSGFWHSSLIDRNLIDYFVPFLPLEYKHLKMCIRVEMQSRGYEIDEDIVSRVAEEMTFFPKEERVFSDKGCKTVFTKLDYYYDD
- test name: small-molecule binders of mutant TOR1A in lysate, primary screen, cell lysate, small-molecule microarray, COS7 lysate, 635/667 nm fluorescence (AID 1150);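 note: score pools 667 nm emission and signal to noise measuring lysate protein binding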
- study conditions: COS7 hTOR1A mutant lysate, 635 nm fluorescence, higher = more signal
Output: the number by itself.

The cases that follow already have their composite z-score on record.
{"molecule": "O=C(O)[C@H]1C[C@H]2C(=O)N[C@@H](Cc3ccccc3)C(=O)N2[C@H]1c1cccc(OCCO)c1", "composite z-score": 1.71}
{"molecule": "C=C(C(=O)CC[C@@H](OC(=O)c1ccccc1-c1ccccc1C(=O)O)c1ccccc1OCCO)C(C)C", "composite z-score": 0.663}
{"molecule": "CC(C)CNC(=O)[C@@]1(C)c2ccccc2C(=O)N(Cc2cc(C(F)(F)F)cc(C(F)(F)F)c2)[C@H]1c1ccc(CO)cc1", "composite z-score": -0.267}
{"molecule": "CC(=O)NCCCC[C@@H]1NC(=O)[C@H]2C[C@@H](C(=O)NCCCCCNC(=O)CS)[C@@H](c3cccc(OCCO)c3)N2C1=O", "composite z-score": 0.092}
{"molecule": "COCC1=C2[C@@H](CCc3ccccc3)OB(O)C[C@@H]2[C@@H]2C(=O)N(C)C(=O)[C@@H]2C1", "composite z-score": -0.0933}
{"molecule": "C=C/C=C/[C@@H]1C(=C)CN([C@@H](Cc2ccccc2)C(=O)OC)[C@H]1[C@@H](O)Cc1ccccc1", "composite z-score": 0.795}

// query Report composite z-score for C=CCC(OC(C)=O)[C@@H]1[C@@H](N(Cc2ccc(-c3ccccc3)cc2)C(=O)Cc2ccc(F)cc2)c2cc(OCCCO)ccc2N1C(=O)Cc1ccc2ccccc2c1 (some centres undefined) please.
// result -0.0043

// query composite z-score for `C=CCNC(=O)[C@@H]1[C@H]2C(=O)O[C@H](c3ccccc3)[C@H](c3ccccc3)N2[C@H](c2ccc(OCCO)cc2)[C@@]12C(=O)N(C(=O)OCCOC)c1ccc(C#CCCO)cc12` ?
// result 0.582

// query Reported composite z-score for COC(=O)C1N=C(c2ccc(OCCCO)cc2)N(c2ccccc2)O1 (centres undefined) : what is it?
// result 0.328

// query # input molecule: `COCCOC(=O)N1C(=O)[C@@]2(c3cc(C#CCNC(N)=O)ccc31)[C@H](c1ccc(OCCO)cc1)N1[C@H](c3ccccc3)[C@H](c3ccccc3)OC(=O)[C@H]1[C@@H]2C(N)=O` ; wanted: its composite z-score
// result 0.406

// query State the recorded composite z-score for this entry: `COC(=O)c1c2oc(c1C(=O)OC)C(=O)N1CCC[C@H]1Cn1nncc1CN(Cc1ccccc1)C(=O)N[C@H](CO)CC2`
// result -0.0715

// query Return reported composite z-score; argument: `C[C@]1(C(=O)NCCN2CCOCC2)c2ccccc2C(=O)N(Cc2cc(F)cc(C(F)(F)F)c2)[C@H]1c1ccc(CO)cc1`
// result 1.84

// query Param item = `C=CCN1C(=O)[C@@]2(O[C@@H](CCO)[C@H]([Si](C)(C)c3ccc(OC)cc3)[C@H]2C)c2cc(N3CCOC3=O)ccc21` ; retrieve measured composite z-score.
// result 0.543

// query # get_value(readout='composite z-score', item= `O=C1O[C@H](c2ccccc2)[C@H](c2ccccc2)N2[C@H]1[C@@H](C(=O)N1CCCCCCC1)[C@]1(C(=O)Nc3ccc(C#CC4(O)CCCCCC4)cc31)[C@H]2c1ccccc1OCCO` )
// result 3.55

====

- test name: PSAC antagonists in infected red cells, primary screen, cell-based, P. falciparum Indochina, OD700, 2 h (AID 1155);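 note: lysis reports solute entry through the parasite surface anion channel PSAC; channel blockers reduce lysis of infected cells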
- study conditions: P. falciparum Indochina infected erythrocytes, osmotic lysis OD700, called active from +8 up or from −8 down
Activity calls are given as the source filed them.
Assign a class; possible classes are active, inactive

Illustrative cases are given below, each with its answer.
{"compound": "COCCCNC(=O)[C@@]1(c2ccc([N+](=O)[O-])cc2)CC(=O)N(CC23CC4CC(CC(C4)C2)C3)[C@@H]1c1ccc(CO)cc1I", "class label": "active"}
{"compound": "O=C1C2C=CC(C(O)c3cccc(O)c3)N(Nc3ccccc3)C2C(=O)N1c1ccccc1 (configuration not stated)", "class label": "inactive"}
{"compound": "COc1ccc([Si](C)(C)[C@@H]2[C@@H](CC(=O)N3Cc4ccccc4C[C@H]3CO)O[C@]3(C(=O)N(c4ccccc4)c4ccccc43)[C@H]2C)cc1", "class label": "inactive"}
{"compound": "CCOC(=O)C[C@H]1[C@H](OC(=O)c2ccc(-c3ccccc3)cc2)[C@@H](NC(=O)Cc2ccc(OC)cc2)c2cc(OCCCO)ccc2N1C(=O)Cc1ccc(OC)cc1", "class label": "inactive"}

// query Outcome logged for `C[C@@H]1ON(c2ccc(I)cc2)[C@H](c2ccc(OC(=O)OC(C)(C)C)cc2)[C@H]1C(=O)N1C(=O)OC[C@H]1Cc1ccccc1` in this assay:
// result inactive

// query Any idea what this test logged for `O=c1cccc(-c2ccc(F)cc2)o1` ?
// result inactive

// query Returns: the outcome recorded for `NCCCCCNC(=O)[C@H]1C[C@H]2C(=O)N[C@@H](Cc3ccccc3)C(=O)N2[C@H]1c1ccc(O)cc1` in this assay.
// result inactive

====

- test name: inhibitors of hydroxyurea-induced Chk1 phosphorylation, primary screen, imaging, HeLa, phospho-Chk1 antibody, percent positive cells (AID 1186)
- study conditions: hydroxyurea-induced phospho-Chk1 immunofluorescence imaging, higher = more signal
readout type: z-score
# respond with the number and nothing more

// query Consider the compound shown here: COc1cc(C(O)C2C=CC3C(=O)N(Cc4ccccc4)C(=O)C3N2n2cnnc2)cc(OC)c1OC (stereo unspecified) What is its recorded z-score?
// result 0.102

====

- test name: A549 cell viability effects, profiling panel, calcein-AM fluorescence, 48 h, basal (AID 1162); note: test concentration not given here
- study conditions: higher = more signal
Note to self: values exactly at 0.2 are Fulfilled. So z-score at or above 0.2 is Fulfilled, below is Not fulfilled.

Sample answers from the record:
{"molecule": "Cc1ccc(C(C)CC(O)C2C=CC3C(=O)N(c4ccccc4)C(=O)C3N2Nc2ccc(C#N)cc2)o1 (centres undefined)", "class label": "Fulfilled"}
{"molecule": "COCCOC(=O)N1C(=O)[C@@]2(c3cc(C#Cc4ccc(OC)cc4)ccc31)[C@H](C(=O)NC[C@H](O)c1ccccc1)[C@H]1C(=O)O[C@H](c3ccccc3)[C@H](c3ccccc3)N1[C@@H]2c1ccc(OCCO)cc1", "class label": "Not fulfilled"}

// query Entry `C=C(COC)C(=O)CC[C@H](OC(C)=O)c1ccc(OCCO)cc1` : is its z-score no less than 0.2?
// result Not fulfilled

// query Reported z-score reaches at least 0.2 for `NC(=O)NCC#Cc1ccc2c(c1)[C@]1(C(=O)N2)[C@H](C(=O)N2CCN(c3ncccn3)CC2)[C@H]2C(=O)O[C@H](c3ccccc3)[C@H](c3ccccc3)N2[C@@H]1c1ccc(OCCO)cc1` ?
// result Not fulfilled

// query Identify whether the reported z-score of the following molecule is 0.2 or greater: O=C1C2C=CC(C(O)C=Cc3ccc([N+](=O)[O-])cc3)N(Nc3ccccc3)C2C(=O)N1c1ccccc1 (centres undefined)
// result Fulfilled

// query Given the entry `COc1ccc([Si](C)(C)[C@H]2[C@H](CCO)O[C@@]3(C(=O)N(Cc4ccccc4)c4ccc(N5CCOC5=O)cc43)[C@@H]2C)cc1` , answer whether its z-score meets or surpasses 0.2.
// result Not fulfilled

// query Say whether CN1C(=O)C2C=CC(C(O)c3ccc(F)cc3)N(NC(=O)OC(C)(C)C)C2C1=O (centres undefined) shows z-score of 0.2 or more.
// result Not fulfilled

// query Determine whether this molecule has z-score no lower than 0.2: CC1CC/C=C\[C@H]2OC34C=CCN(CCN5CCOCC5)C(=O)[C@H]3N(C(C)CO)C(=O)[C@@H]4C2C(=O)O1 (some centres undefined)
// result Fulfilled

// query In plain terms: is recorded z-score at least 0.2 for CC(=O)n1cc(C(O)C2C=CC3C(=O)N(c4ccccc4)C(=O)C3N2Nc2ccc(C(C)C)cc2)c2ccccc21 (centres undefined) ?
// result Not fulfilled

// query Can `Cc1c(NC(=O)/C(C#N)=C/c2ccccc2Cl)c(=O)n(-c2ccccc2)n1C` be said to have z-score at or above 0.2?
// result Fulfilled

====

- test name: CREB reporter modulators without forskolin, primary screen, cell-based, PC12, CRE-LacZ reporter, unstimulated (AID 1145)
- study conditions: no forskolin, luminescence, 4.5 h, higher = more signal, called active from +8 up or from −8 down
Activity calls are given as the source filed them.
z-score: recorded values

Example entries begin here.
{"compound": "COCCOC(=O)N1C(=O)[C@@]2(c3cc(C#CCC(C(=O)OC)C(=O)OC)ccc31)[C@H](C(=O)NC[C@H](O)c1ccccc1)[C@H]1C(=O)O[C@H](c3ccccc3)[C@H](c3ccccc3)N1[C@@H]2c1ccc(O)cc1", "value": "-0.191 (inactive)"}
{"compound": "COCC1C2CC[C@H]3C(OCc4ccc(OC)cc4)OC[C@]4(C)[C@H]3C2=C(CN4C(=O)OC(C)(C)C)[C@H](C)C1COC (stereo partly drawn)", "value": "-0.185 (inactive)"}

Next up:
// query Using the record for `COc1ccc(C(=O)Nc2cccc(CN3C(=O)[C@]4(O[C@H](CCn5cc([C@H](O)c6ccccc6)nn5)[C@@H]([Si](C)(C)c5ccc(OC)cc5)[C@@H]4C)c4ccccc43)c2)cc1` , report its z-score.
// result -0.36 (inactive)
